# Lookup of reported IC50 keyed by entry
- target entity: human TLR8 (Homo sapiens, UniProt Q9NR97)
- Construct: host or cells: HEK-Blue cells
- Sequence (Q9NR97 27-1041): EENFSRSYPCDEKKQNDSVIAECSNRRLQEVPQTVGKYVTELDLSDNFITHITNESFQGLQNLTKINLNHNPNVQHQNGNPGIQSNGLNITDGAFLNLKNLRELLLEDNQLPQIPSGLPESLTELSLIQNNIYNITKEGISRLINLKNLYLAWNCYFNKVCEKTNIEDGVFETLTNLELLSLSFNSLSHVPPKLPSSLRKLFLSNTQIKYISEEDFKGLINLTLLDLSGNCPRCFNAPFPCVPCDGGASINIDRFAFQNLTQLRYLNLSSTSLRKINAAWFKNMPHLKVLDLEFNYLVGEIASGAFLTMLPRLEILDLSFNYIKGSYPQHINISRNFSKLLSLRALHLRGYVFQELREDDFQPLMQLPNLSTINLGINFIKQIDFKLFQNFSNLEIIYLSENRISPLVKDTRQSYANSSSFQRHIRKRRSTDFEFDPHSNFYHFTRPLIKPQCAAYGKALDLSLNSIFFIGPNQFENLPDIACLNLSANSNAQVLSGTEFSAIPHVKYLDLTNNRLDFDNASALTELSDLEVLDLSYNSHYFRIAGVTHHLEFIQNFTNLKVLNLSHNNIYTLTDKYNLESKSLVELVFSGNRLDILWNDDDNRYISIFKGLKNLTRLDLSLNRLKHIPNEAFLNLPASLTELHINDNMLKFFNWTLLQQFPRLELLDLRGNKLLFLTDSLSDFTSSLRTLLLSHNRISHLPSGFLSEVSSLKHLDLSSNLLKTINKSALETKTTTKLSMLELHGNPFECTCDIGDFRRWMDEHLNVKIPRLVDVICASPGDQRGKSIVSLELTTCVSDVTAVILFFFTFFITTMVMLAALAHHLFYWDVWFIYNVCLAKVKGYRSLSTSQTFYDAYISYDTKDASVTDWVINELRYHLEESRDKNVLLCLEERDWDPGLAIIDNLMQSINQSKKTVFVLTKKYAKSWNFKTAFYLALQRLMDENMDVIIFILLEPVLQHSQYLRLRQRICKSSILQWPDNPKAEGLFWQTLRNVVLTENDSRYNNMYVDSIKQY
- experiment notes: TLR8 inhibition reporter assay (HEK-Blue cells, SEAP reporter, R848 stimulation)
- Assay type: cell-based
- conditions: HEK-Blue cells overexpressing human TLR8, SEAP reporter, R848 15.9 μM; read-out: TLR8 IC50

{"compound": "Cc1c(-c2[nH]c3sc(C4CCC(NC5CCOCC5)CC4)nc3c2C(C)C)cn2ncnc2c1C (single isomer, unassigned) [Example 200]", "IC50, nM": 0.39}
{"compound": "Cc1c(-c2[nH]c3sc(C4CCN(C5COC5)CC4)nc3c2C(C)C)cn2ncnc2c1C", "IC50, nM": 5.22}
{"compound": "COc1cc(-c2[nH]c3sc(C4CCC(N5CCNC(=O)C5)CC4)nc3c2C(C)C)cn2ncnc12 (single isomer, unassigned) [Example 121]", "IC50, nM": 57.3}
{"compound": "Cc1c(-c2[nH]c3sc(C(=O)N4CCN(S(C)(=O)=O)CC4)nc3c2C(C)C)cn2ncnc2c1C", "IC50, nM": 20.1}
{"compound": "Cc1c(-c2[nH]c3sc(N4C[C@@H](C)N(CCS(C)(=O)=O)C[C@@H]4C)nc3c2C(C)C)cn2ncnc2c1C", "IC50, nM": 7.61}
{"compound": "CNCC(=O)N1C[C@H](C)N(c2nc3c(C(C)C)c(-c4cn5ncnc5c(C)c4C)[nH]c3s2)C[C@H]1C", "IC50, nM": 3.38}
{"compound": "CCc1c(-c2cc(OC)c3ncnn3c2)[nH]c2sc(C3CCC(N4CC5(COC5)C4)CC3)nc12 (single isomer, unassigned) [Example 270]", "IC50, nM": 14}
{"compound": "CCN(C)C1CCC(c2nc3c(C(C)C)c(-c4cn(C)c5ncccc45)[nH]c3s2)CC1 (single isomer, unassigned) [Example 175]", "IC50, nM": 6.23}
{"compound": "Cc1cc(-c2[nH]c3sc(C(=O)N4CCC(N(C)C)CC4)nc3c2C(C)C)cn2ncnc12", "IC50, nM": 6.75}
{"compound": "COc1cc(-c2[nH]c3sc(C4CCC(N5CCCOCC5)CC4)nc3c2C(C)C)cn2ncnc12 (single isomer, unassigned) [Example 103]", "IC50, nM": 3.46}
{"compound": "Cc1c(-c2[nH]c3sc(CN4CCNC(=O)C4)nc3c2C(C)C)cn2ncnc2c1C", "IC50, nM": 142}
{"compound": "Cc1c(-c2[nH]c3sc(C(=O)N4CCS(=O)(=O)CC4)nc3c2C(C)C)cn2ncnc2c1C", "IC50, nM": 34.5}
{"compound": "Cc1c(-c2[nH]c3sc(C4CCC(N5CC6(COC6)C5)CC4)nc3c2C(C)C)cn(C)c(=O)c1C (single isomer, unassigned) [Example 246]", "IC50, nM": 154}
{"compound": "Cc1c(-c2[nH]c3sc(N4C[C@@H](C)N(C5CCC5)C[C@@H]4C)nc3c2C(C)C)cn2ncnc2c1C", "IC50, nM": 2.19}

---

- target entity: human TLR8 (Homo sapiens)
- Construct: host or cells: HEK-Blue cells
- experiment notes: TLR8 inhibition reporter assay (HEK-Blue cells, SEAP reporter, R848 stimulation)
- Format: cell-based
- conditions: HEK-Blue cells overexpressing human TLR8, SEAP reporter, R848 15.9 μM; read-out: TLR8 IC50
pIC50: −log10 of the molar value.
assay metric: pIC50

{"compound": "CC(=O)N1CCN(C(=O)c2nc3c(C(C)C)c(-c4cn5ncnc5c(C)c4C)[nH]c3s2)CC1", "target entity": "human TLR8 (Homo sapiens)", "assay metric": "pIC50", "value observed": 8.08}
{"compound": "CC(C)c1c(-c2cn(C)c3ncccc23)[nH]c2sc(C3CCNCC3)nc12", "target entity": "human TLR8 (Homo sapiens)", "assay metric": "pIC50", "value observed": 8.52}
{"compound": "COc1cc(-c2[nH]c3sc(C4CCC(N5CCCOCC5)CC4)nc3c2C(C)C)cn2ncnc12 (single isomer, unassigned) [Example 102]", "target entity": "human TLR8 (Homo sapiens)", "assay metric": "pIC50", "value observed": 7.85}
{"compound": "Cc1c(-c2[nH]c3sc(C4CCC(NC5COC5)CC4)nc3c2C(C)C)cn(C)c(=O)c1C (single isomer, unassigned) [Example 242]", "target entity": "human TLR8 (Homo sapiens)", "assay metric": "pIC50", "value observed": 7.79}
{"compound": "COc1cc(-c2[nH]c3sc(C4CCC(N5CC(CO)(CO)C5)CC4)nc3c2C(C)C)cn2ncnc12 (single isomer, unassigned)", "target entity": "human TLR8 (Homo sapiens)", "assay metric": "pIC50", "value observed": 7.89}
{"compound": "Cc1c(-c2[nH]c3sc(N4CCN(C5COC5)CC4)nc3c2C(C)C)cn2ncnc2c1C", "target entity": "human TLR8 (Homo sapiens)", "assay metric": "pIC50", "value observed": 7.84}
{"compound": "Cc1c(-c2[nH]c3sc(C4CCC(NC5CCOCC5)CC4)nc3c2C(C)C)cn(C)c(=O)c1C (single isomer, unassigned) [Example 249]", "target entity": "human TLR8 (Homo sapiens)", "assay metric": "pIC50", "value observed": 8.92}
{"compound": "COC1CN(C(=O)c2nc3c(C(C)C)c(-c4cc(C)c5ncnn5c4)[nH]c3s2)C1", "target entity": "human TLR8 (Homo sapiens)", "assay metric": "pIC50", "value observed": 7.27}
{"compound": "Cc1cc(-c2[nH]c3sc(C(=O)N4CCNC(=O)C4)nc3c2C(C)C)cn2ncnc12", "target entity": "human TLR8 (Homo sapiens)", "assay metric": "pIC50", "value observed": 6.39}
{"compound": "Cc1cc2ncnn2cc1-c1[nH]c2sc(C3CCC(N(C)C(C)C)CC3)nc2c1C(C)C (single isomer, unassigned) [Example 159]", "target entity": "human TLR8 (Homo sapiens)", "assay metric": "pIC50", "value observed": 8.32}
{"compound": "Cc1c(-c2[nH]c3sc(C4CCC(NC5CCS(=O)(=O)C5)CC4)nc3c2C(C)C)cn2ncnc2c1C (single isomer, unassigned) [Example 231]", "target entity": "human TLR8 (Homo sapiens)", "assay metric": "pIC50", "value observed": 8.92}
{"compound": "COC1CN(C2CCC(c3nc4c(C(C)C)c(-c5cn6ncnc6c(C)c5C)[nH]c4s3)CC2)C1 (single isomer, unassigned) [Example 188]", "target entity": "human TLR8 (Homo sapiens)", "assay metric": "pIC50", "value observed": 9.24}
{"compound": "Cc1c(-c2[nH]c3sc(N4CCN(C5COC5)C[C@@H]4C)nc3c2C(C)C)cn2ncnc2c1C", "target entity": "human TLR8 (Homo sapiens)", "assay metric": "pIC50", "value observed": 7.65}
{"compound": "CC(=O)N1CCC(c2nc3c(C(C)C)c(-c4cn5ncnc5c(C)c4C)[nH]c3s2)CC1", "target entity": "human TLR8 (Homo sapiens)", "assay metric": "pIC50", "value observed": 7.33}
